meta.source: ChEMBL document CHEMBL1201862

Tested on: HT-29
Assay: NCI tumour cell line growth inhibition, 48 h
Active and inactive are the calls of the source. Rule as the data show it: active = GI50 up to about 1.1 µM and inactive = higher. Residues, ends and D or L forms follow the SMILES beside them. *: point of attachment. Boc = CC(C)(C)OC(=O)*
measured-property: GI50

Prompt line: GI50 for `CCN(CC)c1c(C(C)(C)C)c(=O)n2ccsc2c1OC(C)=O` ?
Response line: 14.8 µM (inactive)

Prompt line: Same lookup for Cc1ccc(C(=O)C2CC3(CCC2(O)c2ccc(C)cc2)CC(=O)Nc2ccccc2C3=O)cc1 (stereo unspecified) , please.
Response line: > 100 µM (inactive)

Prompt line: Also `COc1cccc(-c2ccc3c4c2O[C@H]2c5[nH]c6ccccc6c5C[C@@]5(O)[C@@H](C3)N(CC3CC3)CC[C@]425)c1` ?
Response line: 1.7 µM (inactive)

Prompt line: Quick one: `CSc1ncnc2c1CCN2`
Response line: 7.96 µM (inactive)

Prompt line: Moving on to the next molecule: CSc1nc(=O)c(C#N)c(-c2ccccc2)n1C1OC(COC(C)=O)C(OC(C)=O)C(OC(C)=O)C1OC(C)=O (stereo unspecified)
Response line: > 100 µM (inactive)

Prompt line: Similarly, CC(=O)OC1c2ccccc2CCCCCCC12OCCO2 (stereo unspecified) ?
Response line: > 100 µM (inactive)

Prompt line: Consider next the molecule `S=C1CSc2c(cnc3ccccc23)N1` in the same way.
Response line: > 100 µM (inactive)

Prompt line: Also, `CCCNC(=O)Cn1c2c(c3ccccc31)CCCC2` please.
Response line: > 100 µM (inactive)

Prompt line: Also check `COc1cc2oc(-c3ccc4c(c3)OCO4)c(OC)c(=O)c2c(OC)c1OC`
Response line: > 100 µM (inactive)

Prompt line: One more molecule: COc1ccccc1C(C1=C(O)COC1=O)c1cc2c(cc1OC(C)=O)OCO2 (stereo unspecified)
Response line: > 100 µM (inactive)

Prompt line: And for CC(Cc1ccccc1)N(C)Cc1nc(C2CCC([N+](=O)[O-])O2)no1 (stereo unspecified) ?
Response line: 2.77 µM (inactive)

Prompt line: Then what about the molecule O=C(CC1(O)C(=O)Nc2c(Cl)cc(Cl)cc21)c1cccc2ccccc12 (stereo unspecified) ?
Response line: 19.6 µM (inactive)

Prompt line: Here is the next molecule: C=C1C(C(=O)O)C1C(=O)O (stereo unspecified)
Response line: > 100 µM (inactive)

Prompt line: Similarly, `Cc1cc(-c2ccccc2)nc(Nc2nc3ccccc3o2)n1` ?
Response line: > 100 µM (inactive)

Prompt line: Let us now turn to COC(=O)C(Cc1c[nH]c2ccccc12)NC(=O)C(Cc1c[nH]c2ccccc12)NC(=O)C(Cc1c[nH]c2ccccc12)NC(=O)C(Cc1c[nH]c2ccccc12)NC(=O)C(Cc1c[nH]c2ccccc12)NC(=O)C(Cc1c[nH]c2ccccc12)NC(=O)OC(C)(C)C (stereo unspecified) (Boc-WWWWWW-OMe; configuration not given here)
Response line: > 100 µM (inactive)

Prompt line: Also `O=S(=O)(O)c1cc(/N=N/c2cccc3ccccc23)c(O)c2ncccc12` ?
Response line: 24.8 µM (inactive)

Prompt line: And `C=Cn1c([N+](=O)[O-])cnc1/C=C/c1ccc(C(=O)OCCN2CCOCC2)cc1` ?
Response line: > 100 µM (inactive)

Prompt line: Do the same for `C(=C\c1cc(CCc2nc3ccccc3[nH]2)n[nH]1)/c1ccccc1` please
Response line: > 100 µM (inactive)

Prompt line: Same thing, different molecule: COc1cccc2ccc3c(c12)C(=O)OC31CCc2c(C)cccc21 (stereo unspecified)
Response line: 11.8 µM (inactive)

Prompt line: One more molecule: `COc1cc2ccc(=O)oc2cc1O`
Response line: 161 µM (inactive)

Prompt line: Likewise for COC(=O)C1CN=CN1CCc1ccccc1 (stereo unspecified) ?
Response line: > 100 µM (inactive)

----------
Tested on: CAKI-1
Assay: NCI tumour cell line growth inhibition, 48 h
The source made the active and inactive calls. Rule as the data show it: active = GI50 up to about 1.1 µM and inactive = higher.
measured-property: GI50

Prompt line: I am curious: what GI50 value has been reported for `COc1cc2ccc(=O)oc2cc1O` ?
Response line: 119 µM (inactive)

Prompt line: Try `CCN1C(=O)/C(=C\c2coc3ccccc3c2=O)SC1=S` next.
Response line: > 100 µM (inactive)

Prompt line: Same read-out for `Cc1c2cccc-2c(N(C)C)cc2c1[nH]c1ccccc12` ?
Response line: 17.5 µM (inactive)

Prompt line: Subsequent entry: `COc1cc(N(CCC#N)CCC#N)ccc1C(/N=N/c1cccc([N+](=O)[O-])c1)=N\NC(=O)c1ccc(C)cc1`
Response line: > 100 µM (inactive)

Prompt line: Queued: `OB(O)c1ccccc1C#Cc1ccccc1B(O)O`
Response line: 3.09 µM (inactive)

Prompt line: Same read-out for `Cc1c2ncccc2c(C)c2c1[nH]c1ccccc12` ?
Response line: 9.23 µM (inactive)

Prompt line: Same lookup for `C(=C\c1cc(CCc2nc3ccccc3[nH]2)n[nH]1)/c1ccccc1` , please.
Response line: > 100 µM (inactive)

Prompt line: Same lookup for `Cn1c(=O)[nH]c2[nH]c3ccccc3c2c1=O` , please.
Response line: > 100 µM (inactive)

Prompt line: What do we get for Cc1ccc([S+]([O-])C[C@](NC(=O)OCc2ccccc2)(Sc2ccccc2)C(F)F)cc1 (stereo partly specified) ?
Response line: 21.5 µM (inactive)

Prompt line: Next compound: `COc1ccc2c(c1)C/C(=C\c1cccc3ccccc13)C2=O`
Response line: > 100 µM (inactive)

Prompt line: Then what about the compound Nc1ncnc2c1nc(-c1ccccc1)n2C1OC(CO)C(O)C1O (stereo unspecified) ?
Response line: > 100 µM (inactive)

Prompt line: Also `COc1ccc2oc(=O)c(-c3csc(C)n3)cc2c1` , if possible.
Response line: > 100 µM (inactive)

Prompt line: What about `CCOC(=O)c1cccc(/N=N/Nc2cccc(C(=O)OCC)c2)c1` ?
Response line: 42 µM (inactive)

Prompt line: Entry to check: `Nc1c(C(=O)Nc2ccc([As](=O)(O)O)cc2)cnc2nnnn12`
Response line: > 100 µM (inactive)

Prompt line: # repeat for `COC(=O)c1c2c(cc3c1CC1(Cc4cc5c(cc4C1)CCC5)C3)CCC2`
Response line: > 100 µM (inactive)

Prompt line: Now consider `CCCNc1ncnc2c1ncn2C` and answer again.
Response line: 36.1 µM (inactive)

----------
Test system: EKVX
Test: NCI tumour cell line growth inhibition, 48 h
Active and inactive are the calls of the source. Cut-off read from the data, not from the text of the source: active = GI50 up to about 1.1 µM and inactive = higher.
Pick from true (1) = active, false (0) = inactive when you respond.

Prompt line: Field: outcome | Entry: `O=C1OI(C#Cc2ccccc2)c2ccccc21`
Response line: false (0)

Prompt line: How about `c1nc2nc[nH]c(SSc3[nH]cnc4ncnc3-4)c-2n1` ?
Response line: false (0)

Prompt line: Lookup `CC(=O)c1c2c(cc3c1CC1(Cc4cc5c(cc4C1)CCCC5)C3)CCCC2`
Response line: false (0)

Prompt line: Input `Cc1cc(S(=O)(=O)Nc2nc(N)n(-c3cnc4ccccc4n3)n2)c(S)cc1Cl`
Response line: false (0)

Prompt line: And `N#C/C=C\c1ccc(-c2cc(C(F)(F)F)cc(C(F)(F)F)c2)o1` ?
Response line: false (0)

Prompt line: Queued: `CCOC(=O)N1CCN(Cc2cc(=O)n3ccc(C)cc3n2)CC1`
Response line: false (0)

Prompt line: Please give the result for `C/C(=N\NC(=S)N1CCN(c2ccccn2)CC1)c1ncccn1` too.
Response line: true (1)

Prompt line: Try the compound `CC(=O)NNc1nc(C)c(C(=O)NNC(=O)C(=O)Nc2nc3ccc([N+](=O)[O-])cc3s2)s1`
Response line: false (0)

Prompt line: Queued: `Oc1c(N2CCCCC2)cc(-c2cc(N3CCCCC3)c(O)c3ccccc23)c2ccccc12`
Response line: false (0)

Prompt line: Try `O=c1ncccn1[C@@H]1O[C@H](CO)[C@@H](O)[C@@H]1F` next.
Response line: false (0)

Prompt line: And `Cc1ccc(S(=O)(=O)N/N=c2/sc3ccccc3n2C)cc1` ?
Response line: false (0)

----------
Test system: DU-145
Assay: NCI tumour cell line growth inhibition, 48 h
Active and inactive are the calls of the source. Rule as the data show it: active = GI50 up to about 1.1 µM and inactive = higher.
Pick one and only one: T = active, F = inactive

Prompt line: Status in this test for COC(=O)/C=C/c1ccc2c(c1)CC1(C2)Cc2cc3c(cc2C1=O)CCC3 (centres undefined) ?
Response line: F

Prompt line: O=C(CNC(=O)OCc1ccccc1)NCCCCC(NC(=O)OCc1ccccc1)C(=O)O (centres undefined) ?
Response line: F

Prompt line: Record: CSc1nc(=O)c(C#N)c(-c2ccccc2)n1C1OC(COC(C)=O)C(OC(C)=O)C(OC(C)=O)C1OC(C)=O (centres undefined)
Response line: F

Prompt line: Also check Cc1ccc(NC(=O)CC(=O)N2N=C(N(C)c3ccccc3)CC2c2ccccc2)cc1 (centres undefined)
Response line: F

Prompt line: Another compound to check: `O=C1C(Cl)=C(N2CCN(c3ccccn3)CC2)C(=O)c2c(O)ccc(O)c21`
Response line: F

Prompt line: `Clc1ccc(-c2nc3cc(Cl)ccc3[nH]2)cc1` , same question.
Response line: F

Prompt line: Repeat with `O=[N+]([O-])c1ccc(-c2cc(O)c3nc4ccccc4n3c2)cc1`
Response line: F

Prompt line: Proceed to O=C(O)C1C2C=CC(C2)C1c1ccccc1 (centres undefined)
Response line: F

Prompt line: Entry Cc1cn(C2CC(O)C(COP(=O)(O)OC3CC(n4c[n+]([BH2-]C#N)c5c(=O)[nH]c(N)nc54)OC3CO)O2)c(=O)[nH]c1=O (centres undefined) please
Response line: F

Prompt line: And what about the compound `CN(C)S(=O)(=O)Nc1ccccn1` ?
Response line: F

Prompt line: Next compound: `CN(CCSCCN(C)C(=O)OC(C)(C)C)C(=O)OC(C)(C)C`
Response line: F

Prompt line: Further, for CNc1ncnc2c1ncn2C1C=CC(COS(N)(=O)=O)C1 (centres undefined) ?
Response line: F

Prompt line: Same read-out for `CCCCCc1nnc(NS(=O)(=O)c2ccc(NC(=O)OCC(C)C)cc2)s1` ?
Response line: F

Prompt line: Now try `Nc1c(Br)cc2c(c1Br)Cc1cc(Br)ccc1-2` .
Response line: F

Prompt line: Note, next up: `CCOC(=O)c1nc2ccccc2nc1NCc1ccc(OC)c(OC)c1`
Response line: F

Prompt line: Again, but for `CC(C)(C)[Si](C)(C)OCCOCn1cc(F)c(=O)[nH]c1=O`
Response line: F

Prompt line: Now the same for `N#Cc1ccccc1C#C/C=C\C#Cc1ccccn1`
Response line: F

Prompt line: Then this compound: CCOC(=O)Oc1cc2c(c(OC)c1OC)-c1ccc(OC)c(=O)cc1C(NC(C)=O)CC2 (centres undefined)
Response line: T

Prompt line: Similarly, `COCCCNc1c2ccccc2nc2ccccc12` ?
Response line: F
